Attribution: PubChem BioAssay (NCI)

- System: OVCAR-3 ovarian
- test-name: NCI-60 one-dose screen, 48 h (100 = growth as untreated, 0 = no growth, -100 = all killed)
- reported-conditions: 10 µM unless noted
- Method: Growth inhibition of the OVCAR-3 human tumor cell line is measured as a screen for anti-cancer activity. Cells are grown in 96 well plates and exposed to the test compound for 48 hours. Compounds are tested at a single concentration, which is 10^-5 M for most compounds. The reported endpoint is percent growth (GI% or GIPRCNT), where numbers from 0 - 100% represent growth inhibition, and numbers from -100% - 0 represent cell death. For example, a value of 40 represents 60% growth inhibition. […]
Compounds without any hit were thinned out: in the full panel of roughly 83,000, 20% have a hit.
growth listing for selected compounds.
Numeric answer only, unit % assumed.

-- ask Which growth value belongs to `Nc1ncc(-c2cnn(C3CCNCC3)c2)cc1-c1nc2cc(Cl)ccc2o1` ?
-- reply -100

-- ask Which growth value belongs to `COc1ccc(/C=C2\NC(=S)NC2=O)cc1` ?
-- reply 107

-- ask Which growth value belongs to `CN1C(=O)/C(=C/c2nc(-c3cccc(F)c3)n3ccccc23)c2ccccc21` ?
-- reply 60.6

====

- System: RPMI-8226 leukemia
- test-name: NCI-60 one-dose screen, 48 h (100 = growth as untreated, 0 = no growth, -100 = all killed)
- reported-conditions: 10 µM unless noted
Compounds without any hit were thinned out: in the full panel of roughly 83,000, 20% have a hit.
value-kind: growth (%)
Numeric answer only, unit % assumed.

compound: Cc1cc([N+](=O)[O-])c(C)cc1C(=O)O
value-kind: growth
unit-descriptor: %
endpoint-result: 115

-- ask Which growth value belongs to CC(C)COCC(CN(Cc1ccccc1)c1ccccc1)N1CCCC1 (stereo not given) ?
-- reply 46.4

====

- System: U251 CNS
- test-name: NCI-60 one-dose screen, 48 h
- reported-conditions: 10 µM unless noted
This is part of a sample that, as a whole, favours compounds with a hit. Of some 83,000 tested, about 20% had one in any assay. Calls of active or inactive are those of the source. How the source made its calls: active means growth percent below 10; inactive means the rest.
Classes to choose from: active, inactive

Examples with answers:
molecule: COc1ccccc1[C@H]1c2[nH]c3ccccc3c2C[C@H]2C(=O)N(CCCCCCC(=O)NO)CC(=O)N12
test-system: U251 CNS
cat: inactive
--
molecule: CCCCc1nc(Cl)c(CO)n1Cc1ccc(-c2ccccc2-c2nn[nH]n2)cc1
test-system: U251 CNS
cat: inactive
--
molecule: O=[N+]([O-])c1ccc(N/N=C/c2c(O)ccc3ccccc23)nc1
test-system: U251 CNS
cat: inactive
--
molecule: CN(C)c1nc(N)nc(Cn2c(-c3nonc3N)nc3ccccc32)n1
test-system: U251 CNS
cat: inactive
--
molecule: COc1ccc2c(c1)C(=O)c1c-2c(OCCN(C)C)nc2cc(OC)ccc12
test-system: U251 CNS
cat: active

-- ask What did the test return for `c1coc([C@@H]2C[C@@H]3Cc4ccc5ccccc5c4N2O3)c1` ?
-- reply inactive

-- ask What did the test return for CC(=O)c1nc2ccccc2n1CCn1cc(CC(N)C(=O)O)c2ccccc21 (stereo not drawn) ?
-- reply inactive

-- ask What did the test return for CCC(c1ccccc1)c1noc(CCN(CC)CC)n1 (stereo not drawn) ?
-- reply inactive

====

- System: UO-31 renal
- test-name: NCI-60 one-dose screen, 48 h
- reported-conditions: 10 µM unless noted
Compounds without any hit were thinned out: in the full panel of roughly 83,000, 20% have a hit. Calls of active or inactive are those of the source. Rule for the calls: active = growth percent below 10; inactive = the rest.
Classes to choose from: T for active, F for inactive

Examples with answers:
structure-as-smiles: O=C(Nc1cccc2ccccc12)c1cc2c(cc1Br)OCO2
cat: F

structure-as-smiles: COc1cc2c(cc1OCCCOc1ccc(-c3cc4ccccc4c4ccccc34)cc1)N=C[C@@H]1CCCN1C2=O
cat: T

structure-as-smiles: Cc1ccccc1NC(=O)c1cc2ccccc2cc1O
cat: T

-- ask What did the test return for `COc1ccc(OC)c(NC(=O)c2cc3oc4ccccc4c3cc2O)c1` ?
-- reply F

====

- Tested on: SN12C renal
- test-name: NCI-60 one-dose screen, 48 h
- reported-conditions: 10 µM unless noted
Compounds without any hit were thinned out: in the full panel of roughly 83,000, 20% have a hit. Activity calls are given as the source filed them. How the source made its calls: active means growth percent below 10; inactive means the rest.
Classes to choose from: active, inactive

Examples with answers:
compound: CC(C)C/C(=N\NC(=O)c1ccncc1)c1cc(Cl)ccc1O
cat: inactive

compound: O=C(N1CCC(CN=c2cc3n(-c4ccc(Cl)cc4)c4ccccc4nc-3cc2Nc2ccc(Cl)cc2)CC1)N1CC1
cat: active

compound: CCCCN(CCCC)CCCOC(=O)c1ccc(N)cc1
cat: inactive

compound: COc1ccc(Cn2c(NCCCN(C)C)nc(=O)n(Cc3ccc(F)cc3)c2=O)cc1
cat: inactive

compound: COc1cc(NC(=O)c2cc3ccccc3cc2O)c(OC)cc1Cl
cat: inactive

compound: COc1cc(/C=C/C(=O)Nc2cccnc2Nc2cc(OC)c(OC)c(OC)c2)cc(OC)c1OC
cat: inactive

-- ask What did the test return for `COc1ccc(-c2cc(Cc3cccs3)c(=O)n(Cn3cncn3)n2)cc1` ?
-- reply inactive

-- ask What did the test return for `Cn1cc(-c2nc(-c3c[nH]c4ncc(F)cc34)cs2)c2cccnc21` ?
-- reply inactive

-- ask What did the test return for `O=C(Nc1ccc(Cl)cc1)Nc1ccc(Oc2nncc3ccccc23)cc1` ?
-- reply active

-- ask What did the test return for CC(=O)Oc1ccc(C23c4ccccc4C2(OC(C)=O)c2cc(OC(C)=O)ccc23)cc1 (stereo unspecified) ?
-- reply inactive

-- ask What did the test return for `Cc1cc(C)n(C(=O)c2nn(-c3ccc(Cl)cc3)cc2O)n1` ?
-- reply inactive

====

- Test system: NCI-H322M lung
- test-name: NCI-60 one-dose screen, 48 h (100 = growth as untreated, 0 = no growth, -100 = all killed)
- reported-conditions: 10 µM unless noted
Compounds without any hit were thinned out: in the full panel of roughly 83,000, 20% have a hit.
value-kind: growth (%)
Numeric answer only, unit % assumed.

structure-as-smiles: CCCCCCCCCCCCCCCCCc1nccn1CCO
unit-descriptor: %
growth: 78.1

structure-as-smiles: CN1CCN(Cc2ccc(NC(=O)c3[nH]ncc3Nc3ccnc4ccnn34)cc2)CC1
unit-descriptor: %
growth: 79.6

structure-as-smiles: O=C1OC(c2ccc(-c3ccccc3)cc2)=C/C1=C/c1cccs1
unit-descriptor: %
growth: 99.7

structure-as-smiles: CC[C@H](C)C(=O)O[C@H]1C[C@@H](C)C=C2C=C[C@H](C)[C@H](CC[C@@H]3C[C@@H](O)CC(=O)O3)[C@H]21
unit-descriptor: %
growth: 54.2

structure-as-smiles: Clc1ccc([C@@H]2C[C@@H]3Cc4cc(Br)c5ccccc5c4N2O3)c(Cl)c1
unit-descriptor: %
growth: 90.7

The record that follows has no growth shown yet.
-- ask Requested read-out growth, target or system NCI-H322M lung, entry `Nc1ccc(S(=O)(=O)Nc2ncccn2)cc1`
-- reply 120

====

- Test system: OVCAR-4 ovarian
- test-name: NCI-60 one-dose screen, 48 h (100 = growth as untreated, 0 = no growth, -100 = all killed)
- reported-conditions: 10 µM unless noted
The panel holds about 83,000 compounds, 20% with a hit somewhere; the sample as a whole holds those more often.
growth listing for selected compounds.
Numeric answer only, unit % assumed.

For orientation, consider the following solved cases.
compound: Cc1cc([N+](=O)[O-])c(C)cc1C(=O)O
test-system: OVCAR-4 ovarian
growth (%): 111
--
compound: NC(N)=NN=c1c(=O)c2ccccc2c1=O
test-system: OVCAR-4 ovarian
growth (%): 103

-- ask Which growth value belongs to `C/C(=N/N=C(N)N)c1ccc(N)cc1` ?
-- reply 100

-- ask Which growth value belongs to `O=C(Nc1nc(-c2ccccc2)cs1)c1cc(O)c(O)c(O)c1` ?
-- reply 44.5

-- ask Which growth value belongs to CCn1c2c(c3ccccc31)SC1c3cccn3CCN1C2=S (stereo not given) ?
-- reply 54.5

-- ask Which growth value belongs to `COc1cc2c(c(OC)c1OC)CCc1cnoc1-2` ?
-- reply 95

-- ask Which growth value belongs to `N#Cc1c(N2CCOCC2)nc2sc3cc(Cl)ccc3n2c1=N` ?
-- reply 102

====

- Test system: SK-MEL-28 melanoma
- test-name: NCI-60 one-dose screen, 48 h (100 = growth as untreated, 0 = no growth, -100 = all killed)
- reported-conditions: 10 µM unless noted
The panel holds about 83,000 compounds, 20% with a hit somewhere; the sample as a whole holds those more often.
growth listing for selected compounds.
Numeric answer only, unit % assumed.

For orientation, consider the following solved cases.
compound: O=C1Nc2ccc(F)cc2/C1=C/c1nc(-c2ccc(F)cc2)n2ccccc12
endpoint-result: 112
--
compound: Cc1cc(=O)n2n1-c1ccc(Cl)cc1NC(=O)C2
endpoint-result: 101
--
compound: Nc1ccccc1-c1ccc([N+](=O)[O-])cc1
endpoint-result: 88.4
--
compound: CC(C)c1nc(N(C)S(C)(=O)=O)nc(-c2ccc(F)cc2)c1/C=C/[C@@H](O)C[C@@H](O)CC(=O)O
endpoint-result: 107

-- ask Requested read-out growth, target or system SK-MEL-28 melanoma, entry `Fc1ccc([C@@H]2CCNC[C@H]2COc2ccc3c(c2)OCO3)cc1`
-- reply 94.4

-- ask Requested read-out growth, target or system SK-MEL-28 melanoma, entry `O=[N+]([O-])c1ccc(N/N=C\c2ccccc2[N+](=O)[O-])nc1`
-- reply 110

-- ask Requested read-out growth, target or system SK-MEL-28 melanoma, entry CC(=O)Oc1ccc(C2OC(c3ccc4ccccc4c3OC(C)=O)=NN2C(C)=O)c(OC(C)=O)c1 (configuration not stated)
-- reply 37.9

-- ask Requested read-out growth, target or system SK-MEL-28 melanoma, entry `O=C1C(Cl)=C(N=Nc2c(Cl)c(O)c3ccccc3c2O)C(=O)c2ccccc21`
-- reply 67.3

-- ask Requested read-out growth, target or system SK-MEL-28 melanoma, entry `Cc1ccsc1/C=C/C1=NCCCN1C`
-- reply 103

-- ask Requested read-out growth, target or system SK-MEL-28 melanoma, entry `COc1ccc(-c2cncn2-c2ccc(-c3nc4cc(OC)c(OC)c(OC)c4s3)cc2)cc1N`
-- reply 78.5

-- ask Requested read-out growth, target or system SK-MEL-28 melanoma, entry `CC(C)C(=O)Cc1cnccn1`
-- reply 116

-- ask Requested read-out growth, target or system SK-MEL-28 melanoma, entry `CC(=O)c1cc(C(=O)c2ccc3c(c2)Sc2ccccc2N3)c2c(C)cc(C)cn12`
-- reply 40.4
